Here the recorded DH is given for each entry.
target: T1, PRPF40A WW12 (tandem WW domains, residues 141–236) (Homo sapiens, UniProt O75400)
T1 construct: WW12 141–236, WW12long 141–248, and N-ext-WW12 56–236; 6xHis-TEV site (N, cleaved yes); made in house; host or cells: Escherichia coli BL21(DE3)
T1 sequence (O75400 141-236): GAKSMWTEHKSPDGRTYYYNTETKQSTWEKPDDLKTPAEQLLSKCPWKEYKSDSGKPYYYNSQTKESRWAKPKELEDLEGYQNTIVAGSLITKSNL
assay overview: ITC of PRPF40A WW12 with GB1-tagged proline-rich peptides and constructs
Assay type: binding
measurement context: ITC binding enthalpy, as E4
Reply with just the number (in kcal/mol).

Example cases with answers are listed next.
{"columns": ["molecule", "DH [kcal/mol]"],
 "data": [
  ["SF1 Pro CD: GB1-tagged SF1 construct, residues 539–639 (protein, left off: His6, N-terminal, state not stated | GB1, N-terminal, kept) GSIPPWQQQQAAAAASPGAPQMQGNPTMVPLPPGVQPPLPPGAPPPPPPPPPGSAGMMYAPPPPPPPPMDPSNFVTMMGMGVAGMPPFGMPPAPPPPPPQN", -46.2],
  ["SF1 Pro B: GB1-tagged SF1 construct, residues 468–539 (protein, left off: His6, N-terminal, state not stated | GB1, N-terminal, kept) GMMPPPPMGMMPPPPPPPSGQPPPPPSGPLPPWQQQQQQPPPPPPPSSSMASSTPLPWQQNTTTTTTSAGTG", -17.3],
  ["SF3A1 C-ter Pro: GB1-tagged SF3A1 construct, residues 552–683 (protein, left off: His6, N-terminal, state not stated | GB1, N-terminal, kept) EIPQQPPPPSSATNIPSSAPPITSVPRPPTMPPPVRTTVVSAVPVMPRPPMASVVRLPPGSVIAPMPPIIHAPRINVVPMPPSAPPIMAPRPPPMIVPTAFVPAPPVAPVPAPAPMPPVHPPPPMEDEPTSK", -68.83],
  ["SF1 Pro BCD: GB1-tagged SF1 construct, residues 468–639 (protein, left off: His6, N-terminal, state not stated | GB1, N-terminal, kept) GMMPPPPMGMMPPPPPPPSGQPPPPPSGPLPPWQQQQQQPPPPPPPSSSMASSTPLPWQQNTTTTTTSAGTGSIPPWQQQQAAAAASPGAPQMQGNPTMVPLPPGVQPPLPPGAPPPPPPPPPGSAGMMYAPPPPPPPPMDPSNFVTMMGMGVAGMPPFGMPPAPPPPPPQN", -65.49],
  ["SF1 Pro BC: GB1-tagged SF1 construct, residues 468–594 (protein, left off: His6, N-terminal, state not stated | GB1, N-terminal, kept) GMMPPPPMGMMPPPPPPPSGQPPPPPSGPLPPWQQQQQQPPPPPPPSSSMASSTPLPWQQNTTTTTTSAGTGSIPPWQQQQAAAAASPGAPQMQGNPTMVPLPPGVQPPLPPGAPPPPPPPPPGSAG", -28.99]
]}

Now let's try a different one.
Look up DH: SF1 Pro ABCD: GB1-tagged SF1 construct, residues 410–639 (protein, left off: His6, N-terminal, state not stated | GB1, N-terminal, kept) GHPMQHNPNGPPPPWMQPPPPPMNQGPHPPGHHGPPPMDQYLGSTPVGSGVYRLHQGKGMMPPPPMGMMPPPPPPPSGQPPPPPSGPLPPWQQQQQQPPPPPPPSSSMASSTPLPWQQNTTTTTTSAGTGSIPPWQQQQAAAAASPGAPQMQGNPTMVPLPPGVQPPLPPGAPPPPPPPPPGSAGMMYAPPPPPPPPMDPSNFVTMMGMGVAGMPPFGMPPAPPPPPPQN
-67.04
